Source listed as ChEMBL document CHEMBL1149177.

tested.on: Histamine H3 receptor (Rattus norvegicus, UniProt Q9QYN8)
Sequence (Q9QYN8 whole entry): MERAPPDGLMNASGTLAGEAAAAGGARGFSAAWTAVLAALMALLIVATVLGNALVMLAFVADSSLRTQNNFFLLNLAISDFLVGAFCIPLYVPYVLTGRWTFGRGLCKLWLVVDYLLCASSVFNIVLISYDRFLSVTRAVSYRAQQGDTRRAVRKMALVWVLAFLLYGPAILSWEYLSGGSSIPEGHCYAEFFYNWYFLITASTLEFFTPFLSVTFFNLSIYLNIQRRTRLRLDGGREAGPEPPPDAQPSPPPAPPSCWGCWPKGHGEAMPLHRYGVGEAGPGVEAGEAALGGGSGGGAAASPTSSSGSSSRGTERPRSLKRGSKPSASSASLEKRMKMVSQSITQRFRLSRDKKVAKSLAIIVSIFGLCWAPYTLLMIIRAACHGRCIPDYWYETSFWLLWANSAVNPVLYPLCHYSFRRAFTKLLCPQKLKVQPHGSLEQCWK
test.method.notes: In vitro inhibitory activity against histamine H3 receptor using [3H]histamine as radioligand from rat cerebral cortex synaptosomes
pKi: −log10 of the molar value.
observable: pKi

O=[N+]([O-])c1cccc(OCCCc2cnc[nH]2)c1 :: 8.03
FC(F)(F)c1cccc(OCCc2c[nH]cn2)c1 :: 7.74
FC(F)(F)c1cccc(SCCCc2c[nH]cn2)c1 :: 7.42
CC(C)c1cccc(OCCCc2cnc[nH]2)c1 :: 7.54
CC(C)(C)c1cccc(OCCCc2cnc[nH]2)c1 :: 7.66
N#Cc1cccc(OCCCc2cnc[nH]2)c1 :: 6.97
FC(F)(F)c1cccc(CCCCc2c[nH]cn2)c1 :: 7.42
Brc1cccc(OCCCc2cnc[nH]2)c1 :: 7.72
FC(F)(F)c1cccc(OCCCc2c[nH]cn2)c1 :: 8.08
FC(F)(F)c1cc(OCCCc2c[nH]cn2)cc(C(F)(F)F)c1 :: 6.94
CCc1cccc(OCCCc2cnc[nH]2)c1 :: 7.82
CC(=O)c1cccc(OCCCc2cnc[nH]2)c1 :: 7.70
Cc1cccc(OCCCc2cnc[nH]2)c1 :: 7.43
